Data origin: patent US4338451A

System: pontogeniculo-occipital points (P.G.O.) caused by an intravenous injection (0.5 mg/kg) of reserpine
Test: Test C: reduction in the density of pontogeniculo-occipital points (P.G.O.) caused by reserpine in cats
Format: in vivo
Details: Felis catus, ip, reserpine 0.5 mg/kg intravenous, read-out: Test C ED 50
As shown below, each of these compounds has a reported ED50 value.

[
  {
    "Compound": "O=C1OC(CO)CN1c1ccc(OCc2cccc(Br)c2)cc1 (stereo not drawn)",
    "ED50": "110 mg/kg"
  },
  {
    "Compound": "O=C1OC(CO)CN1c1ccc(C(F)(F)F)cc1 (stereo not drawn)",
    "ED50": "15 mg/kg"
  }
]

Here is the next item to consider.
IN: Provide one value: measured ED50 of C=CCCCOc1ccc(N2CC(CO)OC2=O)cc1 (stereo not drawn)
OUT: 16 mg/kg
